# Tested on: 5-HT-induced bradycardia
# protocol.description: Bezold-Jarisch reflex (5-HT-induced bradycardia) in pentobarbital anesthetized mice
# Format: in vivo
# measurement.context: 10 mg/kg i.p.
# Experimental: 5-HT3 antagonism can be determined by the radioligand receptor binding assay as described herein and in the in vivo Bezold-Jarisch reflex procedure. The test sample is administered i.p. (mg/kg) to a group of 3 mice. […] A greater than 50 percent (>50) reduction in the bradycardic response relative to vehicle-treated control mice is considered significant. This method has been described by Saxena, P. R. and Lawang, A., Arch. Int. Pharmacodyn., 277:235-252, 1985.
Counter-ions that a name gives are not always drawn.
# Lookup of reported Bezold Jarisch reflex (mice); % Inhibition @ Dose (IP) keyed by entry
readout: Bezold Jarisch reflex (mice); % Inhibition @ Dose (IP) (%)

compound: Cl.Cl.O=C(NC1CCN2CCCC1C2)c1cccn2ccnc12 (stereo not shown)
value: 53
--
compound: CN1[C@@H]2CC[C@H]1C[C@@H](NC(=O)c1cccn3ccnc13)C2 [Example 4, hydrochloride]
value: 82
--
compound: O=C(N[C@H]1[C@H]2C[C@@H]3CN(C2)C[C@@H]31)c1cccn2ccnc12 (relative stereo) [Example 10, hydrochloride]
value: 81
--
compound: O=C(N[C@H]1CCN2CCC[C@@H]1C2)c1cc(Cl)cn2ccnc12 (relative stereo) [Example 1, dihydrochloride]
value: 87
--
compound: O=C(NC1CN2CCC1CC2)c1cccn2ccnc12 (stereo not shown) [Example 8, dihydrochloride]
value: 100
--
compound: CN1[C@@H]2CC[C@H]1C[C@H](NC(=O)c1cccn3ccnc13)C2 [Example 5, hydrochloride]
value: 80
--
compound: CO[C@@H]1CN(CCCOc2ccc(F)cc2)CC[C@@H]1NC(=O)c1cccn2ccnc12 (relative stereo)
value: 23

----------
# study.system: 5-HT3 (Mus musculus)
# Construct: NG108-15 Cells; endogenous in cells; host or cells: NG108-15 cells
# protocol.description: 5-HT3 binding, NG108-15 cells
# measurement.context: several examples have two IC50 values, read-out: 5-HT3 binding: NG108-15 cells IC50
pIC50: −log10 of the molar value. Where a name gives a salt, the structure may show the parent alone.

compound: CCc1cc(C(=O)N[C@H]2[C@H]3C[C@@H]4CN(C3)C[C@@H]42)c2ccccn12 (relative stereo) [Example 15, monohydrochloride]
inequality.sign: =
pIC50: 7.58
//
compound: CCN(CC)CCNC(=O)c1cccn2ccnc12
inequality.sign: =
pIC50: 7.77
//
compound: CCc1nc(C(=O)N[C@H]2[C@H]3C[C@@H]4CN(C3)C[C@@H]42)c2ccccn12 (relative stereo) [Example 16, monohydrochloride]
inequality.sign: =
pIC50: 7.52
//
compound: O=C(NC1C2CC3CC1CN(C3)C2)c1cc(Cl)cn2ccnc12 (stereo not shown) [Example 11, monohydrochloride]
inequality.sign: <
pIC50: 7.00

----------
# study.system: 5-HT3 (Mus musculus, UniProt P23979)
# Construct: NG108-15 Cells; endogenous in cells
# Sequence (P23979 24-489): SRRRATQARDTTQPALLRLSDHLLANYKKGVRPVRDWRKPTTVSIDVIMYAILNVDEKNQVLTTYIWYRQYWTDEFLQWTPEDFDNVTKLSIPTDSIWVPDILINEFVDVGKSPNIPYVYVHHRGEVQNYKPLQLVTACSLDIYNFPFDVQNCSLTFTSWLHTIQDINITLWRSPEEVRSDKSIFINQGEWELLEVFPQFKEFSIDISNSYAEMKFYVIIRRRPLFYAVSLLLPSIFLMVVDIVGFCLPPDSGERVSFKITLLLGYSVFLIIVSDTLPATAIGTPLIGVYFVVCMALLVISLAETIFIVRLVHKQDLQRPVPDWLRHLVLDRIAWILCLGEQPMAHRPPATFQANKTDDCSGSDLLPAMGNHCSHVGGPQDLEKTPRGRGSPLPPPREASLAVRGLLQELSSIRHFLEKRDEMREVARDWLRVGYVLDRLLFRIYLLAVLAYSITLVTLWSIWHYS
# protocol.description: 5-HT3 binding, NG108-15 cells
pKi: −log10 of the molar value. Structures can show the parent of a compound that is named as a salt.

molecule: CN1[C@@H]2CCC[C@H]1C[C@@H](NC(=O)c1cc(Cl)cn3ccnc13)C2 [Example 6, hydrochloride]
pKi: 8.31
//
molecule: CN1[C@@H]2CC[C@H]1C[C@@H](NC(=O)c1cc(Cl)cn3ccnc13)C2 [Example 3, dihydrochloride]
pKi: 7.30
//
molecule: O=C(N[C@H]1CCN2CCC[C@@H]1C2)c1cc(Cl)cn2ccnc12 (relative stereo) [Example 1, dihydrochloride]
pKi: 6.86
//
molecule: CN1[C@@H]2CC[C@H]1C[C@H](NC(=O)c1cccn3ccnc13)C2 [Example 5, hydrochloride]
pKi: 6.50
//
molecule: O=C(NC1CN2CCC1CC2)c1cc(Cl)cn2ccnc12 (centres unmarked) [Example 7, dihydrochloride]
pKi: 7.92
